Molecular target: T1, Human NOTUM (human, UniProt Q6P988 20-496)
T1 construct: also called human notum pectinacetylesterase; recombinant human NOTUM
T1 sequence: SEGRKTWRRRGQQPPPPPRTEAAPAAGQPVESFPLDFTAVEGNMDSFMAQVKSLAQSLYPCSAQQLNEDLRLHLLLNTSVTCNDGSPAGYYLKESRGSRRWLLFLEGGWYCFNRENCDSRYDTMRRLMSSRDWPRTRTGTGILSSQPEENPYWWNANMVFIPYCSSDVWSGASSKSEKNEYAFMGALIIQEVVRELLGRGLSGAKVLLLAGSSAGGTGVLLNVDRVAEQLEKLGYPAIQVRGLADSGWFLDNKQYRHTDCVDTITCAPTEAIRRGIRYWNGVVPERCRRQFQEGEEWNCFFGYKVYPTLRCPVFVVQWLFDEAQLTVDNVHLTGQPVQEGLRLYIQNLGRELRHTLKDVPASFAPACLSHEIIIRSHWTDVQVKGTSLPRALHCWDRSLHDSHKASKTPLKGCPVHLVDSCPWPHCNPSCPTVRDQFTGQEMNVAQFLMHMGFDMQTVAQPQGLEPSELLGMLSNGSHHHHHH
Assay: Biacore 3000
observed_property: kon (M⁻¹ s⁻¹)

- 2.78 Fab (Fab, V domains shown, Fab made by digestion of whole IgG (mouse IgG2b) with ficin) VH: DVQLVESGGGLVQPGGSRKLSCAASGFTFSSFGMHWVRQAPEKGLEWVAYITSGSGAIYYADTVRGRFTISRDTPKNTLFLQMTSLRSEDTAMYYCARSADGLDYWGQGTSVTVSS VL: DIQMTQSPASLYVSVGETVTITCRASENIYSNLAWYQQKQGKSPQLLVYGATNLADGVPSRFSGSGSGTQYSLKINSLKSEDFGSYYCQHFWGTPFTFGSGTKLEIKR: 87700
